The measured values listed here are drawn from patent US20190284129A1.

- system: human PPARalpha receptor (Homo sapiens, UniProt Q07869)
- Construct: expressed in transfected cells; host or cells: HEK293 (DSMZ ACC 305)
- Sequence (Q07869 239-466 limits assumed): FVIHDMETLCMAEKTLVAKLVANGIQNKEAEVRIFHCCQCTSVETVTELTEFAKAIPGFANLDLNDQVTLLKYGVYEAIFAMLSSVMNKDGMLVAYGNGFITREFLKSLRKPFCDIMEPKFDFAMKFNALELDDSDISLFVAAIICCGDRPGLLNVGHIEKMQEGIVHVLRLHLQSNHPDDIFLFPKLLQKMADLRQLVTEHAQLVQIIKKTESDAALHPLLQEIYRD
- assay-protocol: cellular GAL4 reporter gene assay (M1H) in HEK293 cells, PPARalpha
- Format: cell-based
- condition-description: agonist mode, HEK293
readout: Efficacy vs. Fenofibric Acid (%)

Before answering, review these 2 worked examples.
CCCCC/C=C\C/C=C\C/C=C\C/C=C\CCCC(=O)O
30
CCCCCCCCCCCCCCSC(C)C(=O)O (stereo not shown)
55

[I] CCCCC/C=C\C/C=C\C/C=C\C/C=C\CCC(CC)C(=O)O (stereo not shown)
[II] CC/C=C\C/C=C\C/C=C\C/C=C\C/C=C\C/C=C\CC(CC)C(=O)O (stereo not shown)
query: // returns I or II , whichever has the lower Efficacy vs. Fenofibric Acid I would appreciate it if you answered with the label of your choice.
result: II
